system: Spike RBD RBD (Severe acute respiratory syndrome coronavirus 2), P0DTC2
experimental-protocol: MST
condition-set: modification not given
parameter-measured: pKd
To interpret pKd, take it as minus log10 of a concentration measured in moles per litre.

binder: EQAKTFLDKFNHEAEDLFYQK [ACE2 alpha1 peptide P-2-1]
pKd: 5.92

// moving on: another record for pKd
Input: Could you tell me which pKd is on file for PPEQAKTFLDKFNHEAEDLFYQK [ACE2 alpha1 peptide P-2-2] ?
Output: 7.21
